Origin of values: ChEMBL document CHEMBL4118137

system: K562/VCR; assay: Antiproliferative activity against human K562/VCR cells after 72 hrs by CCK8 assay; assay type: functional, cell-based

COMPOUND	RESULT_COMPARATOR	IC50 [µM]
O=C1Nc2ccccc2/C1=C1/Nc2ccccc2C1=O	>	100
COc1cc([C@@H]2c3cc4c(cc3[C@H](OC(=O)CCN3C(=O)/C(=C5\Nc6ccccc6C5=O)c5ccccc53)[C@H]3COC(=O)[C@H]23)OCO4)cc(OC)c1OC	=	2.14
COc1cc([C@@H]2c3cc4c(cc3[C@H](O)[C@H]3COC(=O)[C@H]23)OCO4)cc(OC)c1OC	=	0.05
COc1cc([C@@H]2c3cc4c(cc3[C@H](OC(=O)CCCN3C(=O)/C(=C5\Nc6ccccc6C5=O)c5ccccc53)[C@H]3COC(=O)[C@H]23)OCO4)cc(OC)c1OC	=	1.75
COc1cc([C@@H]2c3cc4c(cc3[C@@H](O[C@@H]3O[C@@H]5CO[C@@H](C)O[C@H]5[C@H](O)[C@H]3O)[C@H]3COC(=O)[C@H]23)OCO4)cc(OC)c1O [ETOPOSIDE]	=	11.8
COc1cc([C@@H]2c3cc4c(cc3[C@H](OC(=O)CCCCCN3C(=O)/C(=C5\Nc6ccccc6C5=O)c5ccccc53)[C@H]3COC(=O)[C@H]23)OCO4)cc(OC)c1OC	=	85.7
CC[C@]1(O)C[C@H]2CN(CCc3c([nH]c4ccccc34)[C@@](C(=O)OC)(c3cc4c(cc3OC)N(C=O)[C@H]3[C@@](O)(C(=O)OC)[C@H](OC(C)=O)[C@]5(CC)C=CCN6CC[C@]43[C@@H]65)C2)C1	=	4.74
COc1cc([C@@H]2c3cc4c(cc3[C@H](OC(=O)CN3C(=O)/C(=C5\Nc6ccccc6C5=O)c5ccccc53)[C@H]3COC(=O)[C@H]23)OCO4)cc(OC)c1OC	=	0.076

----------
test system: K562/Adr; assay: Antiproliferative activity against human K562/ADR cells after 72 hrs by CCK8 assay; type: functional, cell-based
READOUT: IC50 (nM)

SMILES_RECORD	UNIT_OF_MEASUREMENT	VALUE_MEASURED
COc1cc([C@@H]2c3cc4c(cc3[C@H](OC(=O)CN3C(=O)C(=O)c5c(Br)cccc53)[C@H]3COC(=O)[C@H]23)OCO4)cc(OC)c1OC	nM	67

----------
The following compounds are listed with their measured Ratio IC50 values.
experiment: Resistance factor, ratio of IC50 for human K562/VCR cells to IC50 for human K562 cells; type: functional

COMPOUND	Ratio IC50
COc1cc([C@@H]2c3cc4c(cc3[C@H](OC(=O)CCCCCN3C(=O)/C(=C5\Nc6ccccc6C5=O)c5ccccc53)[C@H]3COC(=O)[C@H]23)OCO4)cc(OC)c1OC	5.02
CC[C@]1(O)C[C@H]2CN(CCc3c([nH]c4ccccc34)[C@@](C(=O)OC)(c3cc4c(cc3OC)N(C=O)[C@H]3[C@@](O)(C(=O)OC)[C@H](OC(C)=O)[C@]5(CC)C=CCN6CC[C@]43[C@@H]65)C2)C1	26.61
COc1cc([C@@H]2c3cc4c(cc3[C@H](OC(=O)CCCN3C(=O)/C(=C5\Nc6ccccc6C5=O)c5ccccc53)[C@H]3COC(=O)[C@H]23)OCO4)cc(OC)c1OC	0.97
COc1cc([C@@H]2c3cc4c(cc3[C@@H](O[C@@H]3O[C@@H]5CO[C@@H](C)O[C@H]5[C@H](O)[C@H]3O)[C@H]3COC(=O)[C@H]23)OCO4)cc(OC)c1O [ETOPOSIDE]	15.49
COc1cc([C@@H]2c3cc4c(cc3[C@H](OC(=O)CCN3C(=O)/C(=C5\Nc6ccccc6C5=O)c5ccccc53)[C@H]3COC(=O)[C@H]23)OCO4)cc(OC)c1OC	1.64
COc1cc([C@@H]2c3cc4c(cc3[C@H](O)[C@H]3COC(=O)[C@H]23)OCO4)cc(OC)c1OC	2
COc1cc([C@@H]2c3cc4c(cc3[C@H](OC(=O)CN3C(=O)/C(=C5\Nc6ccccc6C5=O)c5ccccc53)[C@H]3COC(=O)[C@H]23)OCO4)cc(OC)c1OC	2.23
